Every entry's value here was drawn from PubChem BioAssay (EPA / NIEHS).

Test: APR_HepG2_StressKinase_24hr: Apredica 24-hour HepG2 Assay for Stress Kinase (AID 2282922)
Conditions: HepG2 stress kinase (phospho-c-Jun) imaging, actives raise or lower the signal
Activity calls are given as the source filed them. How the source made its calls: active means hit-call score of the fitted dose curve at least 0.9, where 1 is the maximum; inactive means score below 0.9.
Mark one answer only. Choices: t = active, f = inactive

- Molecule: "CCC(C)(C)c1ccc(O)c(C(C)(C)CC)c1"
  Assigned Label: "f"
- Molecule: "O=c1[nH]c(=O)[nH]c(=O)[nH]1"
  Assigned Label: "f"
- Molecule: "COc1cc(-c2ccc(N)c(OC)c2)ccc1N"
  Assigned Label: "f"
- Molecule: "Cn1sc(Cl)cc1=O"
  Assigned Label: "f"

In: Per the assay record, what outcome was assigned to "CCN1CCC2(CC1)COc1cc3c(cc12)N(C(=O)c1ccc(-c2ccc(-c4nnc(C)o4)cc2C)cc1)CC3" ?
Out: t

In: For "C[C@]12CCC(=O)C[C@@H]1CC[C@@H]1[C@@H]2CC[C@]2(C)[C@@H](O)CC[C@@H]12" then?
Out: f

In: For "C[C@@H]1C[C@@H]([C@H](O)CC2CC(=O)NC(=O)C2)C(=O)[C@@H](C)C1" then?
Out: f

In: For "CN(C)N=O" then?
Out: f

In: For "Oc1cccc2cccnc12" then?
Out: f

In: For "O=C(O)C(Cl)(Cl)Cl" then?
Out: f

In: For "Cc1ccccc1N" then?
Out: f

In: For CC12CC1(C)C(=O)N(c1cc(Cl)cc(Cl)c1)C2=O (centres undefined) then?
Out: f

In: For "CC(C)(C)c1cc(O)ccc1O" then?
Out: f

In: For "ClCC(Cl)CCl" then?
Out: f

* * *

Read-out: Urokinase-type plasminogen activator receptor (uPAR), PLAUR (gene 5329)
Assay: BSK_BE3C_uPAR: BioMAP Diversity Plus: BE3C Assay for Urokinase-type plasminogen activator receptor (uPAR) Biomarker Activity (AID 2283039)
Details: primary human bronchial epithelial cells; actives raise or lower the signal
Active and inactive are the calls of the source. Rule for the calls: active = hit-call score of the fitted dose curve at least 0.9, where 1 is the maximum; inactive = score below 0.9.
Mark one answer only. Choices: yes (1) = active, no (0) = inactive

Solved cases below.
- Compound: "CCOP(=S)(OCC)SCSP(=S)(OCC)OCC"
  Assigned Label: "no (0)"
- Compound: "O=[N+]([O-])c1ccc2c3c(cccc13)CC2"
  Assigned Label: "yes (1)"

In: Per the assay record, what outcome was assigned to "O=C(O)C(F)(F)C(F)(F)C(F)(F)C(F)(F)C(F)(F)C(F)(F)F" ?
Out: no (0)

In: For CC(=O)C(Cl)C(=O)N(C)C (centres undefined) then?
Out: no (0)

In: For "COC(=O)c1sccc1S(=O)(=O)NC(=O)Nc1nc(C)nc(OC)n1" then?
Out: no (0)

* * *

Read-out: E-selectin (Homo sapiens)
Experiment: BSK_3C_Eselectin: BioMAP Diversity Plus: 3C Assay for Eselectin Biomarker Activity (AID 2283015)
Settings: primary human endothelial cells (HUVEC); actives raise or lower the signal
Description: BSK_3C is a cell-based, multiplexed-readout assay that uses umbilical vein endothelium, a human vascular primary cell, with measurements taken at 24 hours after chemical dosing in a 96-well plate.BSK_3C_Eselectin is an assay component measured in the BSK_3C assay. It measures E-selectin antibody related to regulation of gene expression using ELISA technology.Data from the assay component BSK_3C_Eselectin was analyzed into 1 assay endpoint. […]
Active and inactive are the calls of the source. The calls were made as follows: active = hit-call score of the fitted dose curve at least 0.9, where 1 is the maximum; inactive = score below 0.9.
Mark one answer only. Choices: 1 (yes) for active, 0 (no) for inactive

Solved cases below.
- Compound: "CCC(=O)C(CC(C)N(C)C)(c1ccccc1)c1ccccc1 (stereo not given)"
  Assigned Label: "0 (no)"
- Compound: "C[C@@H]1C[C@@H]([C@H](O)CC2CC(=O)NC(=O)C2)C(=O)[C@@H](C)C1"
  Assigned Label: "1 (yes)"
- Compound: "CCOP(=S)(OCC)SCSP(=S)(OCC)OCC"
  Assigned Label: "0 (no)"

In: Per the assay record, what outcome was assigned to "CC(C)(c1ccccc1)c1ccc(O)c(C(C)(C)c2ccccc2)c1" ?
Out: 1 (yes)

In: For "CN(C)N=O" then?
Out: 0 (no)

In: For "CCCCCCCCC(=O)NCc1ccc(O)c(OC)c1" then?
Out: 0 (no)

In: For "CCOC(=O)/C=C(C)/C=C/C[C@@H](C)CCCC(C)C" then?
Out: 1 (yes)

In: For "O=Cc1cccc(Oc2ccccc2)c1" then?
Out: 0 (no)

In: For "CC(=O)[O][Hg][c]1ccccc1" then?
Out: 1 (yes)

In: For "Cc1ccccc1N" then?
Out: 0 (no)

* * *

Test: ATG_VDRE_CIS: Attagene CIS-FACTORIAL HepG2 Assay for human Vitamin D Receptor Element (VDRE) (AID 2282968)
Details: HepG2 VDRE cis-reporter transcription, actives raise or lower the signal
The source made the active and inactive calls. Rule for the calls: active = hit-call score of the fitted dose curve at least 0.9, where 1 is the maximum; inactive = score below 0.9.
Mark one answer only. Choices: active, inactive

- Compound: "CNC"
  Assigned Label: "inactive"
- Compound: "ClCc1ccccn1"
  Assigned Label: "inactive"
- Compound: "CCCCCCCCSC(=O)Oc1cc(Cl)nnc1-c1ccccc1"
  Assigned Label: "active"

In: Per the assay record, what outcome was assigned to "CCC[CH2][Sn]([CH2]CCC)([CH2]CCC)[O]C(=O)c1ccccc1" ?
Out: active

In: For "COC(=O)c1sccc1S(=O)(=O)NC(=O)Nc1nc(C)nc(OC)n1" then?
Out: inactive

In: For "O=C(OC1CCCCC1)c1ccccc1C(=O)OC1CCCCC1" then?
Out: active

In: For "Oc1c(I)cc(I)cc1I" then?
Out: active

In: For "O=C/C=C/c1ccccc1" then?
Out: active

* * *

Biological target: human Norepinephrine Transporter (NET), SLC6A2 (gene 6530)
Assay: NVS_TR_hNET: NovaScreen (NVS) Transporter Assay for human Norepinephrine Transporter (NET) (AID 2283377);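 further: cell-free membrane protein extracted from CHO cells expressing human NET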
Protocol: NVS_TR_hNET is a biochemical, single-readout assay that uses extracted gene-proteins from CHO in a cell-free assay. Measurements were taken 1 hour after chemical dosing in a 96-well plate.NVS_TR_hNET is one of one assay component(s) measured or calculated from the NVS_TR_hNET assay. […] This assay endpoint, NVS_TR_hNET, was analyzed in the positive analysis fitting direction relative to DMSO as the negative control and baseline of activity. […]
Records with an inconclusive call do not appear. Calls of active or inactive are those of the source. The calls were made as follows: active = hit-call score of the fitted dose curve at least 0.9, where 1 is the maximum; inconclusive = response in the unintended direction; inactive = score below 0.9.
Mark one answer only. Choices: active, inactive

- Compound: "CC(C)(c1ccccc1)c1ccc(O)c(C(C)(C)c2ccccc2)c1"
  Assigned Label: "inactive"
- Compound: "CC(C)(C)CC(C)(C)c1ccc(O)cc1"
  Assigned Label: "active"
- Compound: "C=C(C)C(=O)[O][Sn]([CH2]CCC)([CH2]CCC)[CH2]CCC"
  Assigned Label: "active"
- Compound: "NC(=S)Nc1ccccc1"
  Assigned Label: "active"
- Compound: "CCN1CCC2(CC1)COc1cc3c(cc12)N(C(=O)c1ccc(-c2ccc(-c4nnc(C)o4)cc2C)cc1)CC3"
  Assigned Label: "active"
- Compound: "Nc1ccc(-c2ccc(N)c(Cl)c2)cc1Cl"
  Assigned Label: "active"
- Compound: "CCC(=O)C(CC(C)N(C)C)(c1ccccc1)c1ccccc1 (stereo not given)"
  Assigned Label: "active"
- Compound: "Nc1cccc2ccccc12"
  Assigned Label: "active"

In: Per the assay record, what outcome was assigned to "COP(=S)(OC)Oc1ccc(Sc2ccc(OP(=S)(OC)OC)cc2)cc1" ?
Out: active

In: For "CCOP(=S)(OCC)SCSP(=S)(OCC)OCC" then?
Out: inactive

* * *

Read-out: Caspase-3 (Homo sapiens) (UniProt P42574)
Sequence (P42574 whole entry, looked up): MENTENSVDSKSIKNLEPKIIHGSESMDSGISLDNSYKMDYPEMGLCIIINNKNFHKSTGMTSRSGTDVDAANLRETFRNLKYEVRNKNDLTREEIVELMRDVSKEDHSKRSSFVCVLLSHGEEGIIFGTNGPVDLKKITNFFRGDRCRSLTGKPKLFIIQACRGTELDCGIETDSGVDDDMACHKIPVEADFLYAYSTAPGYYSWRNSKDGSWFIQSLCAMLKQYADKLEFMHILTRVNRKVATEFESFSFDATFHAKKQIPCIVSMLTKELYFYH
Experiment: LTEA_HepaRG_CASP3: Life Technologies and Expression Analysis (LTEA) Assay for cysteine-aspartic acid protease (CASP3) using HepaRG (AID 2283477)
Conditions: mRNA level, 48 h; actives raise or lower the signal
Active and inactive are the calls of the source. Rule for the calls: active = hit-call score of the fitted dose curve at least 0.9, where 1 is the maximum; inactive = score below 0.9.
Mark one answer only. Choices: 1 (yes) = active, 0 (no) = inactive

- Substance Smiles: "CN(C)N=O"
  Assigned Label: "0 (no)"

In: Per the assay record, what outcome was assigned to "O=C(O)C(F)(F)C(F)(F)C(F)(F)C(F)(F)C(F)(F)C(F)(F)C(F)(F)C(F)(F)C(F)(F)C(F)(F)F" ?
Out: 0 (no)

In: For "CC(C)(OO)c1ccccc1" then?
Out: 0 (no)

In: For "CCN1CCC2(CC1)COc1cc3c(cc12)N(C(=O)c1ccc(-c2ccc(-c4nnc(C)o4)cc2C)cc1)CC3" then?
Out: 0 (no)

* * *

Test: LTEA_HepaRG_LDH_cytotoxicity: Cytotoxicity Assessment in the Life Technologies and Expression Analysis (LTEA) Assay (AID 2283563)
Active and inactive are the calls of the source. How the source made its calls: active means hit-call score of the fitted dose curve at least 0.9, where 1 is the maximum; inconclusive means response in the unintended direction; inactive means score below 0.9.

- Compound: "NC(=O)O"
  outcome: "inactive"
- Compound: "CCC(=O)C(CC(C)N(C)C)(c1ccccc1)c1ccccc1 (stereo not drawn)"
  outcome: "inactive"
- Compound: "ClCC(Cl)CCl"
  outcome: "inactive"
